Molecular target: human serum albumin (HSA) (Homo sapiens, UniProt P02768)
Construct: purchased Sigma-Aldrich
Sequence (P02768 25-609): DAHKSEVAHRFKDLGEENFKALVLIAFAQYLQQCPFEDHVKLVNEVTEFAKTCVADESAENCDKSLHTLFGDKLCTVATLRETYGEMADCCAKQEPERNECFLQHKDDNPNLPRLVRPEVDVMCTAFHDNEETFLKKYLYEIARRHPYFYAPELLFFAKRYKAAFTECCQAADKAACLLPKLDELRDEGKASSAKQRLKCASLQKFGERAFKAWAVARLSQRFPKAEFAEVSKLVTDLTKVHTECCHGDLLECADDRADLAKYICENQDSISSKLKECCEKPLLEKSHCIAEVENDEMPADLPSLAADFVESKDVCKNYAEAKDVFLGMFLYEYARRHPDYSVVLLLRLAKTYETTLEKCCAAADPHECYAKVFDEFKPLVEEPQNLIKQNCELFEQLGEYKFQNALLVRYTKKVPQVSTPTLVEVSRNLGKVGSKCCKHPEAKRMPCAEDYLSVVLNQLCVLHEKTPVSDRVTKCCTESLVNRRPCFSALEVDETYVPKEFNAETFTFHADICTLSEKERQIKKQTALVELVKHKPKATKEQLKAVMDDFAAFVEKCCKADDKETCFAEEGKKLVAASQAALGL
Experiment: HSA binding by tryptophan fluorescence quenching
Conditions: [Ru complex]/[HSA] ratio 0 to 2.4; 0.1 M sodium phosphate pH 7.4
Kindly supply the reported binding number n for HSA binding values for the records listed here.
Answers are plain numbers.

Record excerpt, results attached:
compound	tested system	binding number n for HSA binding
Cc1ccnc(-c2cc(CCCCCCCc3ccnc(-c4cc(C)ccn4)c3)ccn2)c1.[Ru+2].c1cnc2c(c1)ccc1cccnc12 [α-phen-7, cis-α-[Ru(phen)(bb7)]^2+]	human serum albumin (HSA) (Homo sapiens, UniProt P02768)	0.80
Cc1ccnc(-c2cc(CCCCCCCCCCCCc3ccnc(-c4cc(C)ccn4)c3)ccn2)c1.[Ru+2].c1cnc2c(c1)ccc1cccnc12 [α-phen-12, cis-α-[Ru(phen)(bb12)]^2+]	human serum albumin (HSA) (Homo sapiens, UniProt P02768)	0.95

Would you mind listing binding number n for HSA binding for each of the following compounds?
1. Cc1cnc2c(ccc3c(C)c(C)cnc32)c1C.Cc1cnc2c(ccc3c(C)c(C)cnc32)c1C.Cc1cnc2c(ccc3c(C)c(C)cnc32)c1C.[Ru+2] [(Me4phen)3, [Ru(Me4phen)3]^2+, reference compound]
2. Cc1ccnc(-c2cc(CCCCCCCc3ccnc(-c4cc(C)ccn4)c3)ccn2)c1.O=[N+]([O-])c1cc2cccnc2c2ncccc12.[Ru+2] [α-NO2phen-7, cis-α-[Ru(NO2phen)(bb7)]^2+]

Reply:
0.81
1.27

Query: # input compound: Cc1ccnc(-c2cc(CCCCCCCc3ccnc(-c4cc(C)ccn4)c3)ccn2)c1.Cc1cnc2c(ccc3c(C)c(C)cnc32)c1C.[Ru+2] [α-Me4phen-7, cis-α-[Ru(Me4phen)(bb7)]^2+] ; wanted: its binding number n for HSA binding
Reply: 1.14
